ASSAY: in vivo
APPLIED CONDITIONS: BALB/c nude, mouse, in vivo, iv, total radioactivity, % ID/g Fat
REPORTED METRIC: tissue uptake at 4 h (%ID/g)
Answers are plain numbers, in %ID/g.

*Q* Could you tell me which tissue uptake at 4 h is on file for C[C@@H](O)[C@H](NC(=O)[C@@H]1CSSC[C@H](NC(=O)[C@@H](Cc2ccccc2)NC(=O)COCCOCCNC(=O)[C@H](CCCCNC(=O)c2cccc(NC(=O)N[C@@H]3CN(C4CCCCC4)c4ccccc4N(CC(=O)C(C)(C)C)C3=O)c2)NC(=O)CN2CCN(CC(=O)O)CCN(CC(=O)O)CCN(CC(=O)O)CC2)C(=O)N[C@@H](Cc2ccc(O)cc2)C(=O)N[C@H](Cc2c[nH]c3ccccc23)C(=O)N[C@@H](CCCCN)C(=O)N[C@@H]([C@@H](C)O)C(=O)N1)C(=O)O [Compound 177Lu-I-37, metal not drawn] ?
*A* 3.28

* * *

For each of the molecules below, state its Relative Binding Affinity CCK2R.
TARGET OR SYSTEM: CCK2R (Rattus norvegicus)
Construct: host or cells: AR42J cells
ASSAY: Competitive cell-binding assay on AR42J cells with 125I-C3 as competitive ligand
APPLIED CONDITIONS: based on mean IC50, C-2 = 1.00
Answers are plain numbers.

MOLECULE | REPORTED METRIC | REPORTED
C[C@@H](O)[C@H](NC(=O)[C@@H]1CSSC[C@H](NC(=O)[C@@H](Cc2ccccc2)NC(=O)COCCOCCNC(=O)[C@H](CCCCNC(=O)[C@H](CCC(=O)O)NC(=O)c2cccc(NC(=O)N[C@@H]3CN(C4CCCCC4)c4ccccc4N(CC(=O)C(C)(C)C)C3=O)c2)NC(=O)CN2CCN(CC(=O)O)CCN(CC(=O)O)CCN(CC(=O)O)CC2)C(=O)N[C@@H](Cc2ccc(O)cc2)C(=O)N[C@H](Cc2c[nH]c3ccccc23)C(=O)N[C@@H](CCCCN)C(=O)N[C@@H]([C@@H](C)O)C(=O)N1)C(N)=O [Compound I-3, DOTA-K(-E-Z360)-OEG-f[CYwKTC]T-NH2] | Relative Binding Affinity CCK2R | 5.3

Shifting focus to the molecule that follows.
*Q* // map `C[C@@H](O)[C@H](NC(=O)[C@@H]1CSSC[C@H](NC(=O)[C@@H](Cc2ccccc2)NC(=O)CC[C@H](NC(=O)[C@H](CCCCNC(=O)CC[C@H](NC(=O)CNC(=O)c2cccc(NC(=O)N[C@@H]3CN(C4CCCCC4)c4ccccc4N(CC(=O)C(C)(C)C)C3=O)c2)C(=O)O)NC(=O)CC[C@H](NC(=O)CN2CCN(CC(=O)O)CCN(CC(=O)O)CCN(CC(=O)O)CC2)C(=O)O)C(=O)O)C(=O)N[C@@H](Cc2ccc(O)cc2)C(=O)N[C@H](Cc2c[nH]c3ccccc23)C(=O)N[C@@H](CCCCN)C(=O)N[C@@H]([C@@H](C)O)C(=O)N1)C(=O)O` to recorded Relative Binding Affinity CCK2R (system: CCK2R (Rattus norvegicus))
*A* 13.5

* * *

For each of the compounds below, state its Relative Binding Affinity CCK2R.
TARGET OR SYSTEM: CCK2R (Rattus norvegicus, UniProt P30553)
Construct: host or cells: AR42J cells
Sequence (P30553 whole entry): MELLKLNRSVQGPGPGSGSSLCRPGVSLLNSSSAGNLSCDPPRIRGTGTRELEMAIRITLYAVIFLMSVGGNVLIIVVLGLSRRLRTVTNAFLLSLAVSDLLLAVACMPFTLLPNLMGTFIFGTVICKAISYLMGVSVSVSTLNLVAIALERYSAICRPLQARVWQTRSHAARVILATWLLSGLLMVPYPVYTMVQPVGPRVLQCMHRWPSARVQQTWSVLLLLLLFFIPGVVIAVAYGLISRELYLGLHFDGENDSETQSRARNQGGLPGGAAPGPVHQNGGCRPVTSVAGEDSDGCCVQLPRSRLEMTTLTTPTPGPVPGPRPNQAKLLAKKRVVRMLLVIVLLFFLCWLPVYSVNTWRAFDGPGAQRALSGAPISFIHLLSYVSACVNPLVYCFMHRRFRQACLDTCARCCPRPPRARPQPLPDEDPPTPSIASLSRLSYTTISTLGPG
ASSAY: Competitive cell-binding assay on AR42J cells with 125I-C3 as competitive ligand
APPLIED CONDITIONS: based on mean IC50, C-2 = 1.00
Numbers only.

COMPOUND | TARGET OR SYSTEM | Relative Binding Affinity CCK2R
CC(C)(C)C(=O)CN1C(=O)[C@H](NC(=O)Nc2cccc(C(=O)N[C@@H](CCC(=O)N[C@@H](CCC(=O)N[C@@H](CCC(=O)N[C@@H](CCCCNC(=O)COCCOCCNC(=O)COCCOCCNC(=O)CCC(C(=O)O)N3CCN(CC(=O)O)CCN(CC(=O)O)CCN(CC(=O)O)CC3)C(N)=O)C(=O)O)C(=O)O)C(=O)O)c2)CN(C2CCCCC2)c2ccccc21 (stereo partly drawn) [Compound C-4, Z360-gE-gE-gE-K(-OEG-OEG-DOTAGA)-NH2, reference compound] | CCK2R (Rattus norvegicus, UniProt P30553) | 21.9
C[C@@H](O)[C@H](NC(=O)[C@@H]1CSSC[C@H](NC(=O)[C@@H](Cc2ccccc2)NC(=O)COCCOCCNC(=O)COCCOCCNC(=O)[C@H](CCCCNC(=O)c2cccc(NC(=O)N[C@@H]3CN(C4CCCCC4)c4ccccc4N(CC(=O)C(C)(C)C)C3=O)c2)NC(=O)CN2CCN(CC(=O)O)CCN(CC(=O)O)CCN(CC(=O)O)CC2)C(=O)N[C@@H](Cc2ccc(O)cc2)C(=O)N[C@H](Cc2c[nH]c3ccccc23)C(=O)N[C@@H](CCCCN)C(=O)N[C@@H]([C@@H](C)O)C(=O)N1)C(=O)O [Compound I-39, DOTA-K(Z360)-OEG-OEG-f[CYwKTC]T-OH] | CCK2R (Rattus norvegicus, UniProt P30553) | 3.4

Shifting focus to the compound that follows.
*Q* Could you tell me which Relative Binding Affinity CCK2R is on file for C[C@@H](O)[C@H](NC(=O)[C@@H]1CSSC[C@H](NC(=O)[C@@H](Cc2ccccc2)NC(=O)[C@H](CCCCNC(=O)CC[C@H](NC(=O)CNC(=O)c2cccc(NC(=O)N[C@@H]3CN(C4CCCCC4)c4ccccc4N(CC(=O)C(C)(C)C)C3=O)c2)C(=O)O)NC(=O)COCCOCCNC(=O)CCC(C(=O)O)N2CCN(CC(=O)O)CCN(CC(=O)O)CCN(CC(=O)O)CC2)C(=O)N[C@@H](Cc2ccc(O)cc2)C(=O)N[C@H](Cc2c[nH]c3ccccc23)C(=O)N[C@@H](CCCCN)C(=O)N[C@@H]([C@@H](C)O)C(=O)N1)C(=O)O (stereo partly drawn) ?
*A* 270

* * *

ASSAY: in vivo
APPLIED CONDITIONS: BALB/c nude, mouse, in vivo, iv, total radioactivity, T/L Tumor/Liver ratio
REPORTED METRIC: tissue to tissue ratio at 24 h
One number for each entry.

*Q* Could you tell me which tissue to tissue ratio at 24 h is on file for C[C@@H](O)[C@H](NC(=O)[C@@H]1CSSC[C@H](NC(=O)[C@@H](Cc2ccccc2)NC(=O)COCCOCCNC(=O)[C@H](CCCCNC(=O)[C@H](CCC(=O)O)NC(=O)c2cccc(NC(=O)N[C@@H]3CN(C4CCCCC4)c4ccccc4N(CC(=O)C(C)(C)C)C3=O)c2)NC(=O)CN2CCN(CC(=O)O)CCN(CC(=O)O)CCN(CC(=O)O)CC2)C(=O)N[C@@H](Cc2ccc(O)cc2)C(=O)N[C@H](Cc2c[nH]c3ccccc23)C(=O)N[C@@H](CCCCN)C(=O)N[C@@H]([C@@H](C)O)C(=O)N1)C(N)=O [Compound I-3, DOTA-K(-E-Z360)-OEG-f[CYwKTC]T-NH2] ?
*A* 12

* * *

ASSAY: in vivo
APPLIED CONDITIONS: BALB/c nude, mouse, in vivo, iv, total radioactivity, uptake Pancreas
REPORTED METRIC: tissue uptake at 24 h
Please format your answer as a value with the unit trailing.

MOLECULE | tissue uptake at 24 h
C[C@@H](O)[C@H](NC(=O)[C@@H]1CSSC[C@H](NC(=O)[C@@H](Cc2ccccc2)NC(=O)COCCOCCNC(=O)COCCOCCNC(=O)[C@H](CCCCNC(=O)c2cccc(NC(=O)N[C@@H]3CN(C4CCCCC4)c4ccccc4N(CC(=O)C(C)(C)C)C3=O)c2)NC(=O)CN2CCN(CC(=O)O)CCN(CC(=O)O)CCN(CC(=O)O)CC2)C(=O)N[C@@H](Cc2ccc(O)cc2)C(=O)N[C@H](Cc2c[nH]c3ccccc23)C(=O)N[C@@H](CCCCN)C(=O)N[C@@H]([C@@H](C)O)C(=O)N1)C(=O)O [Compound I-39, DOTA-K(Z360)-OEG-OEG-f[CYwKTC]T-OH] | 0.94 %ID/g

Give one value of tissue uptake at 24 h per listed molecule.
1. C[C@@H](O)[C@H](NC(=O)[C@@H]1CSSC[C@H](NC(=O)[C@@H](Cc2ccccc2)NC(=O)CC[C@H](NC(=O)[C@H](CCCCNC(=O)CC[C@H](NC(=O)CNC(=O)c2cccc(NC(=O)N[C@@H]3CN(C4CCCCC4)c4ccccc4N(CC(=O)C(C)(C)C)C3=O)c2)C(=O)O)NC(=O)CC[C@H](NC(=O)CN2CCN(CC(=O)O)CCN(CC(=O)O)CCN(CC(=O)O)CC2)C(=O)O)C(=O)O)C(=O)N[C@@H](Cc2ccc(O)cc2)C(=O)N[C@H](Cc2c[nH]c3ccccc23)C(=O)N[C@@H](CCCCN)C(=O)N[C@@H]([C@@H](C)O)C(=O)N1)C(=O)O
2. C[C@@H](O)[C@H](NC(=O)[C@@H]1CSSC[C@H](NC(=O)[C@@H](Cc2ccccc2)NC(=O)COCCOCCNC(=O)[C@H](CCCCNC(=O)c2cccc(NC(=O)N[C@@H]3CN(C4CCCCC4)c4ccccc4N(CC(=O)C(C)(C)C)C3=O)c2)NC(=O)COCCOCCNC(=O)CN2CCN(CC(=O)O)CCN(CC(=O)O)CCN(CC(=O)O)CC2)C(=O)N[C@@H](Cc2ccc(O)cc2)C(=O)N[C@H](Cc2c[nH]c3ccccc23)C(=O)N[C@@H](CCCCN)C(=O)N[C@@H]([C@@H](C)O)C(=O)N1)C(=O)O [Compound I-52, DOTA-OEG-K(Z360)-OEG-f[CYwKTC]T-OH]
3. C[C@@H](O)[C@H](NC(=O)[C@@H]1CSSC[C@H](NC(=O)[C@@H](Cc2ccccc2)NC(=O)COCCOCCNC(=O)[C@H](CCCCNC(=O)[C@H](CCC(=O)O)NC(=O)c2cccc(NC(=O)N[C@@H]3CN(C4CCCCC4)c4ccccc4N(CC(=O)C(C)(C)C)C3=O)c2)NC(=O)CN2CCN(CC(=O)O)CCN(CC(=O)O)CCN(CC(=O)O)CC2)C(=O)N[C@@H](Cc2ccc(O)cc2)C(=O)N[C@H](Cc2c[nH]c3ccccc23)C(=O)N[C@@H](CCCCN)C(=O)N[C@@H]([C@@H](C)O)C(=O)N1)C(N)=O [Compound I-3, DOTA-K(-E-Z360)-OEG-f[CYwKTC]T-NH2]

*A*
1. 2.89 %ID/g
2. 0.9 %ID/g
3. 1.05 %ID/g
